biological target: HIV-1 integrase wild-type (IN1-288) (HIV-1, UniProt P12497 P12497:1148-1435); assay: inhibition; first activity column (headed strand transfer); other column 0.610; Table C-2 prints 3' end ggg; conditions: G4
property_name: IC50
State the value, then name its unit.

I am curious: what IC50 value has been reported for GTGGTTGGTGTGGTTGGT (ssDNA, PS at first and last linkages) [T30674] ?
760 nM
